All values here come from PubChem BioAssay AID1851.

biological target: Cytochrome P450 1A2 (Homo sapiens); experiment: Cytochrome panel assay with activity outcomes; conditions: recombinant CYP, pro-luciferin dealkylation, luminescence, p450-cyp1a2; series mostly up to 57.1 µM; as to activity, negative = inhibition: % is scaled to controls: 0 for no effect and ±100 for the full control effect
The whole screen tested about 16,000 compounds, of which about 5,700 (36%) were called active. Inconclusive results (about 24%) are left out. This is one part of the list.
compounds and their reported activity, negative = inhibition

Observe how each entry below is paired with its result.
ENTRY_SMILES: NCCNC(=S)S
activity, negative = inhibition: -13.2% [at 2.29 µM] (inactive)
//
ENTRY_SMILES: O=C(N/N=C\c1cccc(O)c1)c1ccncc1
activity, negative = inhibition: -15.7% [at 11.4 µM] (inactive)
//
ENTRY_SMILES: CCOC(=O)CCN1C(=O)[C@H]2[C@H]3[C@H](O)[C@H](O)C/C(=N/OC/C=C(\C)CCC=C(C)C)[C@H]3CC[C@@H]2C1=O
activity, negative = inhibition: 1.64% [at 11.4 µM] (inactive)
//
ENTRY_SMILES: CCN1C(=O)[C@H]2[C@H]3[C@H](O)[C@H](O)C/C(=N/OC)[C@@H]3CC[C@@H]2C1=O
activity, negative = inhibition: -3.89% [at 11.4 µM] (inactive)
//
ENTRY_SMILES: O=[N+]([O-])c1ccc([C@@H](Nc2ccccc2)c2ccc3cccnc3c2O)cc1
activity, negative = inhibition: -21.3% [at 2.29 µM] (inactive)

Could you now look at the following compound, please?
Request: Query (compound): S=C(S)NCCN1CCNCC1 ; field requested: activity, negative = inhibition
Result: -7.09% [at 11.4 µM] (inactive)

* * *

molecular target: Cytochrome P450 1A2 (Homo sapiens); test: Cytochrome panel assay with activity outcomes; settings: recombinant CYP, pro-luciferin dealkylation, luminescence, p450-cyp1a2; series mostly up to 57.1 µM
The campaign covered roughly 16,000 compounds. About 5,700 (36%) were called active. Roughly 24% stayed inconclusive and do not appear here. The list shows a part of the results.
ENDPOINT_LABEL: AC50

Observe how each entry below is paired with its result.
COMPOUND: O=C(Nc1ccc(Cl)cc1Cl)c1cccc(N2C(=O)C=CC2=O)c1
MEASURED_ON: Cytochrome P450 1A2 (Homo sapiens)
RESULT_VALUE: 12.6 µM (active)
//
COMPOUND: CN(C)c1ccc(-c2cncnc2N(C)Cc2ccco2)cc1
MEASURED_ON: Cytochrome P450 1A2 (Homo sapiens)
RESULT_VALUE: 0.631 µM (active)
//
COMPOUND: Cc1c(NC(=O)CSc2nnnn2C)c(=O)n(-c2ccccc2)n1C
MEASURED_ON: Cytochrome P450 1A2 (Homo sapiens)
RESULT_VALUE: inactive
//
COMPOUND: COc1cccc(-c2cncnc2N(C)Cc2ccco2)c1
MEASURED_ON: Cytochrome P450 1A2 (Homo sapiens)
RESULT_VALUE: 10 µM (active)
//
COMPOUND: CN(Cc1ccco1)c1ncncc1-c1cccnc1
MEASURED_ON: Cytochrome P450 1A2 (Homo sapiens)
RESULT_VALUE: 5.01 µM (active)

Request: Query (compound): Cc1noc(C)c1C(=O)N1CCC2(CCCN(Cc3ccc(C#N)cc3)C2)CC1 ; field requested: AC50
Result: inactive

Request: Entry CN(C)C(=O)c1ccc(-c2cncnc2NCCN2CCOCC2)cc1 please
Result: inactive

Request: Entry COc1cc2cc3c4cc(OC)c(OC)cc4cc[n+]3c(C)c2cc1OC please
Result: inactive

Request: Entry Cc1cccc(NC(=O)CSc2nnnn2C)n1 please
Result: 14.1 µM (active)

Request: Entry COc1ccccc1-c1cncnc1NCCNC(C)=O please
Result: inactive

Request: Entry CN(Cc1ccco1)c1ncncc1-c1ccc2c(c1)OCO2 please
Result: 0.2 µM (active)

Request: Entry COCCN1C(=O)c2ccccc2C(C(=O)Nc2ccc3c(c2)OCCO3)C1c1ccc(F)cc1 (configuration not stated) please
Result: inactive
